assayed system: MAP kinase-activated protein kinase 2 (Homo sapiens)
Sequence (P49137 whole entry): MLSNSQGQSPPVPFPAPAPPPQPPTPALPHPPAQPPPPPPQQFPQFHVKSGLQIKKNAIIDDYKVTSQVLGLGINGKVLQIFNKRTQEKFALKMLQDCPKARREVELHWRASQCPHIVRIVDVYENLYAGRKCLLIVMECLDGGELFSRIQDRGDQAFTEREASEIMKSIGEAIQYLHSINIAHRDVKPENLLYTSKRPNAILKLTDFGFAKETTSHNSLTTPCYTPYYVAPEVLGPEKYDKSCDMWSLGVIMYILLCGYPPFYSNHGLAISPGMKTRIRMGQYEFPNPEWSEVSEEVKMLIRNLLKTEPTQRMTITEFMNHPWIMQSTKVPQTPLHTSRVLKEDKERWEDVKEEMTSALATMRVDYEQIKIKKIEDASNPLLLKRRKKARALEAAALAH
assay name: Inhibition of human recombinant MAPKAPK2 expressed in Sf9 insect cells using [KKLNRTLSVA] as substrate in presence of [33P]-ATP by radiometric hotspot kinetic assay
pIC50: −log10 of the molar value.
measured parameter: pIC50

input: pIC50 lookup needed for C=CC(=O)Nc1cc(N2CCN(C)CC2)ccc1Nc1ncc2c(n1)-n1ccc(C(=O)Nc3c(CC)cccc3CC)c1CC2 , thanks.
output: < 5.30

* * *

assayed system: Dual specificity protein kinase TTK (Homo sapiens, UniProt P33981)
assay name: Inhibition of recombinant human full length N-terminal GST-fused MPS1 (1 to 857 residues) using histone H3 as substrate by TR-FRET assay
measured parameter: IC50 (nM)
Field format: number, assumed nM, no unit text.

- smiles text: "C=CC(=O)Nc1cc(N2CCN(C)CC2)ccc1Nc1ncc2c(n1)-n1ccc(C(=O)Nc3c(CC)cccc3CC)c1CC2"
  IC50 [nM]: 13

Would you kindly look at the next entry?
input: Which IC50 is reported for this compound? CCC(=O)Nc1cc(N2CCN(C)CC2)ccc1Nc1ncc2c(n1)-n1ccc(C(=O)Nc3c(CC)cccc3CC)c1CC2
output: 9.06

* * *

assayed system: UniProtKB P33981
Sequence (P33981 whole entry): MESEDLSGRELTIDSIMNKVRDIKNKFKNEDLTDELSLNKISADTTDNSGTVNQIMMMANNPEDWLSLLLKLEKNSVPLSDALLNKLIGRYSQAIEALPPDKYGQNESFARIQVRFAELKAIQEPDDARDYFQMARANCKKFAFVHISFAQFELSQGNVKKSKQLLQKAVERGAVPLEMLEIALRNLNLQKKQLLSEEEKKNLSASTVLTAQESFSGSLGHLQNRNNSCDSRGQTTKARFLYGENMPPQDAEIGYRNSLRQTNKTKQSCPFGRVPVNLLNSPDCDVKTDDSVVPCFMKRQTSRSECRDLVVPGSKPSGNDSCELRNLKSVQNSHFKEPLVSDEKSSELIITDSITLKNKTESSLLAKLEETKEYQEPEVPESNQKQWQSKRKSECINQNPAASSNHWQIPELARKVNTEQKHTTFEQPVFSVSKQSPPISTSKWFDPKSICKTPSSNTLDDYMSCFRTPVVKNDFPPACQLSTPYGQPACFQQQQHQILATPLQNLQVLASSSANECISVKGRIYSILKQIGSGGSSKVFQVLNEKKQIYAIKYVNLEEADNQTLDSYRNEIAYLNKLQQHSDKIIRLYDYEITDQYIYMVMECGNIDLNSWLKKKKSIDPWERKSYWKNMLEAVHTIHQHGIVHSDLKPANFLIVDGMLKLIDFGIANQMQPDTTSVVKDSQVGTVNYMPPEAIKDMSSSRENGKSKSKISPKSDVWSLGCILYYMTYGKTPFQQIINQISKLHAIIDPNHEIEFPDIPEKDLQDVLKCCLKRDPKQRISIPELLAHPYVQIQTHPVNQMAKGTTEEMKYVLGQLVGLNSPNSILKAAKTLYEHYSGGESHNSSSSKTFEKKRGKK
assay name: Inhibition of recombinant human full length N-terminal GST-fused MPS1 (1 to 857 residues) using histone H3 as substrate measured immediately in presence of DTT by TR-FRET assay
measured parameter: IC50 (nM)
// note: answer is a bare numeric in nM

input: # lookup: IC50 of C=CC(=O)Nc1cc(N2CCN(C)CC2)ccc1Nc1ncc2c(n1)-n1ccc(C(=O)Nc3c(CC)cccc3CC)c1CC2
output: 40.2

* * *

As shown below, each of these compounds has a reported ΔTm value.
assayed system: Serine/threonine-protein kinase 17B (Homo sapiens) (UniProt O94768)
Sequence (O94768 whole entry): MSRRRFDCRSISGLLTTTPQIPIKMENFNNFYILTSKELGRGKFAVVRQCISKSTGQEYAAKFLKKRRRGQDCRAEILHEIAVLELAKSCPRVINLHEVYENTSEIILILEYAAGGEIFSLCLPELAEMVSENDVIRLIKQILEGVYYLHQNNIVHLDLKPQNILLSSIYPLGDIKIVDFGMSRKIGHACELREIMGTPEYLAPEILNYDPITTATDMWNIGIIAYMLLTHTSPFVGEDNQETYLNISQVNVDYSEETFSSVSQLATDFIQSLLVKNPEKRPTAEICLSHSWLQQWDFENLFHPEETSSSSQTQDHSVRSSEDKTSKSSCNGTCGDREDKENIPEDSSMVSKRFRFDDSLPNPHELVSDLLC
assay conditions: dose 10.0 µM
Output should be the measured figure followed by the unit it is expressed in.

- smiles text: "CCc1cccc(CC)c1NC(=O)c1ccn2c1CCc1cnc(Nc3ccc(N4CCN(C)CC4)cc3OC)nc1-2"
  assayed system: "Serine/threonine-protein kinase 17B (Homo sapiens) (UniProt O94768)"
  ΔTm: "21.6 °C"
- smiles text: "C=CC(=O)Nc1cc(N2CCN(C)CC2)ccc1Nc1ncc2c(n1)-n1ccc(C(=O)Nc3c(CC)cccc3CC)c1CC2"
  assayed system: "Serine/threonine-protein kinase 17B (Homo sapiens) (UniProt O94768)"
  ΔTm: "11.9 °C"
- smiles text: "CCC(=O)Nc1cc(N2CCN(C)CC2)ccc1Nc1ncc2c(n1)-n1ccc(C(=O)Nc3c(CC)cccc3CC)c1CC2"
  assayed system: "Serine/threonine-protein kinase 17B (Homo sapiens) (UniProt O94768)"
  ΔTm: "17.4 °C"

input: Which measured ΔTm belongs to COc1ccc(Oc2cc(NCCC(F)(F)F)c3ncc(-c4ccc(C(=O)NC5CC5)c(C)c4)n3n2)c(F)c1F , tested on Serine/threonine-protein kinase 17B (Homo sapiens) (UniProt O94768)?
output: 19.1 °C

input: What do you have for COc1cc(OC2CCN(C)CC2)ccc1Nc1ncc2c(n1)n(C1CCCC1)c(=O)n2C ?
output: 11.5 °C

* * *

assayed system: MAP kinase-activated protein kinase 3 (Homo sapiens, UniProt Q16644)
Sequence (Q16644 whole entry): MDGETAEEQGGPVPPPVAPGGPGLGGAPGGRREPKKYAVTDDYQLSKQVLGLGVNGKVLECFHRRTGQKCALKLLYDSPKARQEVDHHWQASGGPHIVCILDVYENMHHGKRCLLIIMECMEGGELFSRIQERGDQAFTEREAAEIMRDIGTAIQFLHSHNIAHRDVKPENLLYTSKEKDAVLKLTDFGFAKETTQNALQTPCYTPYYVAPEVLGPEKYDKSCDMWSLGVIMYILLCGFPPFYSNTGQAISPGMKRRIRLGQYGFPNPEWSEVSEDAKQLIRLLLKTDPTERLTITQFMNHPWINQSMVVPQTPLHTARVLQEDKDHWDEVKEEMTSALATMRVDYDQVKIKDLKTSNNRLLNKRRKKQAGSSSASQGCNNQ
assay name: Inhibition of human recombinant MAPKAPK3 expressed in Sf9 insect cells using [KKLNRTLSVA] as substrate in presence of [33P]-ATP by radiometric hotspot kinetic assay
measured parameter: IC50

input: Form field - read-out: IC50; system: MAP kinase-activated protein kinase 3 (Homo sapiens, UniProt Q16644); submitted item: C=CC(=O)Nc1cc(N2CCN(C)CC2)ccc1Nc1ncc2c(n1)-n1ccc(C(=O)Nc3c(CC)cccc3CC)c1CC2
output: > 5 µM

* * *

assayed system: Fibroblast growth factor receptor 4 (Homo sapiens, UniProt P22455)
Sequence (P22455 whole entry): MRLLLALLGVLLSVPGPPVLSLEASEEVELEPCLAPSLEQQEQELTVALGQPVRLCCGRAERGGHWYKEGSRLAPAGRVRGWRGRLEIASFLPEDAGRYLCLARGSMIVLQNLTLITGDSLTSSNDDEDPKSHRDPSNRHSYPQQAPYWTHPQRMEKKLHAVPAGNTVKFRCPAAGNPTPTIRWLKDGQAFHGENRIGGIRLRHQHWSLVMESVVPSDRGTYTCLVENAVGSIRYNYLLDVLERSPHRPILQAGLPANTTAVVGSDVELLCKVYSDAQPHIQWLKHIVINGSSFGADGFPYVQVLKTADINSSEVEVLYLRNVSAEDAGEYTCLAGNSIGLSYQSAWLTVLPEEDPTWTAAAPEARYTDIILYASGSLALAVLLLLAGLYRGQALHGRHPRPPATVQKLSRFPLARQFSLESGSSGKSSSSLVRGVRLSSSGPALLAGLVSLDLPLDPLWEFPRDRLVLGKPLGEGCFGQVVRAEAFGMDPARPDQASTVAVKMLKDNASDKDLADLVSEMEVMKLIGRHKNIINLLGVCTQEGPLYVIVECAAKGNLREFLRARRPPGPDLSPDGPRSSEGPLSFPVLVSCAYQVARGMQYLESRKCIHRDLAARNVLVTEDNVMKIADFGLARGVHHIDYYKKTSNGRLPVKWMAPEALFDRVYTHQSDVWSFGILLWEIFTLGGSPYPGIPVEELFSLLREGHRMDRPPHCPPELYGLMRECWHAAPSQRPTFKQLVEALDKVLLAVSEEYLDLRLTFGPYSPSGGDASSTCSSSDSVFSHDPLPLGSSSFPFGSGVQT
assay name: Inhibition of human recombinant FGFR4 expressed in Sf9 insect cells using poly[Glu:Tyr] 4:1 as substrate in presence of [33P]-ATP by radiometric hotspot kinetic assay
measured parameter: pIC50
For clarity, pIC50 is expressed as the negative log10 of concentration in mol/L.

input: Param item = C=CC(=O)Nc1cc(N2CCN(C)CC2)ccc1Nc1ncc2c(n1)-n1ccc(C(=O)Nc3c(CC)cccc3CC)c1CC2 ; retrieve measured pIC50.
output: 5.56

* * *

assay name: Stability of compound in glutathione at pH 7.4 assessed as half life by HPLC analysis
Type: physicochemical
assay conditions: glutathione solution, time 5 min
measured parameter: half-life at 100 µM (h)
Kindly provide the numeric value in h only, without the unit symbol.

input: I would be grateful if you could share the reported half-life at 100 µM for C=CC(=O)Nc1cc(N2CCN(C)CC2)ccc1Nc1ncc2c(n1)-n1ccc(C(=O)Nc3c(CC)cccc3CC)c1CC2 .
output: 84.5

* * *

assayed system: Dual specificity protein kinase TTK (Homo sapiens, UniProt P33981)
Sequence (P33981 whole entry): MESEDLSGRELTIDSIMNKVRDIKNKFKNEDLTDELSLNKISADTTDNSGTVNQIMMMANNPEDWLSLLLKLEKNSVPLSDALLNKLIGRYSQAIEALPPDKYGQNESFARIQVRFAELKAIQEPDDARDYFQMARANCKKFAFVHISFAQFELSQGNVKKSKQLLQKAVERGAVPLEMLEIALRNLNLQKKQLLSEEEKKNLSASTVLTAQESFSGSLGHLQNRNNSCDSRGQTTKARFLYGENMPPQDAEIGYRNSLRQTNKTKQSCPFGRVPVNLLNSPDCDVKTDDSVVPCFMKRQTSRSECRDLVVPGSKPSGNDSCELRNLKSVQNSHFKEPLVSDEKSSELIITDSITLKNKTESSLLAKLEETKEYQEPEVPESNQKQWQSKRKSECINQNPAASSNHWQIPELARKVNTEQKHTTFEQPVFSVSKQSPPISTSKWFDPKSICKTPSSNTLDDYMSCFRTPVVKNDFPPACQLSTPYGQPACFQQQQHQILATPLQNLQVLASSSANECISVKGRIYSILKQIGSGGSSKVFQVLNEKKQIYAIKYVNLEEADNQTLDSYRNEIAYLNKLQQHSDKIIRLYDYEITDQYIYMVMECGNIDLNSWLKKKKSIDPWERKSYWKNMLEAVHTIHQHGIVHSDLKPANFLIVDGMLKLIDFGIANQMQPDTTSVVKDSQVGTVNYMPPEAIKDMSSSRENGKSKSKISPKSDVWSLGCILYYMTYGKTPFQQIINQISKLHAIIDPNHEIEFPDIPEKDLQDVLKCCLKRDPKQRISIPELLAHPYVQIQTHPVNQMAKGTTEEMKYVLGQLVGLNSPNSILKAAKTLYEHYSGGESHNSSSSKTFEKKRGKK
assay name: Covalent inhibition of human full length N-terminal GST-fused MPS1 (1 to 857 residues) assessed as inhibition constant by TR-FRET assay
measured parameter: pKi
FYI, pKi means -log10 of a concentration in mol per litre.

input: Need pKi of C=CC(=O)Nc1cc(N2CCN(C)CC2)ccc1Nc1ncc2c(n1)-n1ccc(C(=O)Nc3c(CC)cccc3CC)c1CC2 , thanks.
output: 7.85

* * *

assayed system: Dual specificity protein kinase TTK (Homo sapiens, UniProt P33981)
assay name: Inhibition of recombinant human full length N-terminal GST-fused MPS1 (1 to 857 residues) using histone H3 as substrate measured after 2 hrs in presence of DTT by TR-FRET assay
measured parameter: IC50
Write the numeric value and follow it with the unit.

input: Recorded IC50 of C=CC(=O)Nc1cc(N2CCN(C)CC2)ccc1Nc1ncc2c(n1)-n1ccc(C(=O)Nc3c(CC)cccc3CC)c1CC2 , please.
output: 20 nM
